Read-out: Cytochrome P450 (CYP1A1), CYP1A1 (gene 1543)
TEST DETAILS: LTEA_HepaRG_CYP1A1: Life Technologies and Expression Analysis (LTEA) Assay for Cytochrome P450 (CYP1A1) using HepaRG (AID 2283454)
TEST PARAMETERS: mRNA level, 48 h; actives raise or lower the signal
Calls of active or inactive are those of the source. The calls were made as follows: active = hit-call score of the fitted dose curve at least 0.9, where 1 is the maximum; inactive = score below 0.9.
The reply should be one of these categories: active, inactive

Look over these answered cases.
Cc1ccc(N)cc1    inactive
CCCSC(=O)N(CCC)CCC    active
N#CC(Br)Br    inactive

Hey, what did the test say about "CCC[CH2][Sn]([Cl])([CH2]CCC)[CH2]CCC" ?
active

Hey, what did the test say about "Clc1ccc(C(c2ccc(Cl)cc2)C(Cl)(Cl)Cl)cc1" ?
active

* * *

Read-out: Glutathione S-Transferase (GSTA2), GSTA2 (gene 2939)
TEST DETAILS: LTEA_HepaRG_GSTA2: Life Technologies and Expression Analysis (LTEA) Assay for Glutathione S-Transferase (GSTA2) using HepaRG (AID 2283497)
TEST PARAMETERS: mRNA level, 48 h; actives raise or lower the signal
Protocol: LTEA_HepaRG is a cell based, multiplexed-readout assay that uses HepaRG, a human liver cell line, with measurements taken at 48 hours after chemical dosing on a 96-well plate.LTEA_HepaRG_GSTA2 is one of 102 assay component(s) measured in the LTEA HepaRG cell culture assay. It is a marker of Oxidative Stress.Data from the assay component LTEA_HepaRG_GSTA2 was analyzed into 1 endpoint. […]
The source made the active and inactive calls. How the source made its calls: active means hit-call score of the fitted dose curve at least 0.9, where 1 is the maximum; inactive means score below 0.9.
The reply should be one of these categories: 1 = active, 0 = inactive

Look over these answered cases.
c1ccc2c(c1)oc1ccccc12    0
[O-][Cl+]O    0
COC(=O)Nc1nc2ccccc2[nH]1    0
Cc1ccc(N=C=O)cc1N=C=O    1
COc1cc(C=O)cc2c1[C@H](COC(N)=O)[C@]1(OC(C)=O)ON2C[C@H]2[C@@H]1N2C(C)=O    1
O=[N+]([O-])C(Br)(CO)CO    0
c1ccc(N=Nc2ccccc2)cc1    0
N#CC(Br)(Br)C(N)=O    0
Clc1ccc(Cl)c(Cl)c1    1
O=C(Oc1ccc(Br)cc1)N1CCN2CCC1CC2    0

Hey, what did the test say about "CN(C)c1ccc(C(=O)c2ccc(N(C)C)cc2)cc1" ?
0

Hey, what did the test say about "CN(C)C(=O)Nc1ccc(Cl)cc1" ?
0

Hey, what did the test say about "CCN(CC)N=O" ?
0

Hey, what did the test say about "O=C(N[C@H](c1ccccc1)[C@@H]1CN2CCC1CC2)c1c(Cl)ccc(C(F)(F)F)c1Cl" ?
1

Hey, what did the test say about "Cc1ccc(N)c(N)c1" ?
1

Hey, what did the test say about "O=P(OCCCl)(OCCCl)OCCCl" ?
0

Hey, what did the test say about "Cc1cc(N=Nc2ccccc2C)ccc1N" ?
1

Hey, what did the test say about "Cc1cccc(N)c1N" ?
1

Hey, what did the test say about "CC(C)COC(=O)c1ccccc1C(=O)OCC(C)C" ?
0

Hey, what did the test say about "OCCOCCO" ?
0

Hey, what did the test say about "CC(C)(C)OOC(=O)c1ccccc1" ?
0

Hey, what did the test say about "CCC12COCN1COC2" ?
0

Hey, what did the test say about "Nc1cc(Cl)cc(C(=O)O)c1Cl" ?
0

Source: PubChem BioAssay (EPA / NIEHS)
